target: hGHQ40N (human, UniProt P01241 27-217); assay: cell-based or functional assay
Sequence (P01241 27-217 Q66N): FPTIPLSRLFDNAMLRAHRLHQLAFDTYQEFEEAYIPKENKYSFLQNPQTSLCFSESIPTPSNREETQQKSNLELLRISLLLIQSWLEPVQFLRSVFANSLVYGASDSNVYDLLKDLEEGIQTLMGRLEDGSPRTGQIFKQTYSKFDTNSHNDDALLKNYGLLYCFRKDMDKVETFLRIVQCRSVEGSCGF
MEASUREMENT_TYPE: RSA Q141

### Prompt Report measured RSA Q141; entry is S. ladakanum GlyPro-TGase mutant S250P (enzyme) GPDSDERVTPPAEPLDRMPDPYRPSYGRAETIVNNYIRKWQQVYSHRDGRKQQMTEEQREWLSYGCVGVTWVNSGQYPTNRLAFAFFDEDKYKNELKNGRPRSGETRAEFEGRVAKDSFDEAKGFQRARDVASVMNKALENAHDEGAYLDNLKKELANGNDALRNEDARSPFYSALRNTPSFKDRNGGNHDPSKMKAVIYSKHFWSGQDRSGSSDKRKYGDPEAFRPDRGTGLVDMSRDRNIPRSPTSPGEPFVNFDYGWFGAQTEADADKTVWTHGNHYHAPNGSLGAMHVYESKFRNWSDGYSDFDRGAYVVTFVPKSWNTAPDKVKQGWP
### Response 3.99 relative to wild type TGase
